- target desc: Wild type TGMV AL1 fused to the Gal4 DNA binding domain (pNSB736) (tomato golden mosaic virus (TGMV))
Can you tell me oligomer. (oligomerization activity relative to wild type) for the items I'm about to list?

INSERT INTO results (binder, observed_result) VALUES
  ('AL1 N-DR172 (Ala9) fused to the Gal4 activation domain (pNSB762) (other) MPSHPKRFQINAKNYFLTYPQCSLSKEESLSQLQALNTPINKKFIKICRELHEDGQPHLHVLIQFEGKYCCQNQRFFDLVSPTRSAHFHPNIQRAKSSSDVKTYIDKDGDTLVWGEFQVDGRSARGGCQTSNDAAAEALNASSKEEALQIIREKIPEKYLFQFHNLNSALAAIFDKTPEPWLPPFHVSSFTNVPDEMRQWAENYFGKSSAARPERPISIIIEGDSRTGKTMWARSLGPHNYLSGHLDLNSRVYSNKVEYNVIDDVTPQYLKLKHWKELIGAQRDWQTNCKYGKPVQIKGGIPSIVLCNPGEGASYKVFLDKEENTPLKNWTFHNAKFVFLNSPLYQSSTQSS', '31 relative to wild type (100)');

Please turn your attention to the following entry.
Request: Quick check: oligomer. (oligomerization activity relative to wild type) of AL1 RS-R125 (Ala1) fused to the Gal4 activation domain (pNSB786) (other) MPSHPKRFQINAKNYFLTYPQCSLSKEESLSQLQALNTPINKKFIKICRELHEDGQPHLHVLIQFEGKYCCQNQRFFDLVSPTRSAHFHPNIQRAKSSSDVKTYIDKDGDTLVWGEFQVDGAAAAGGCQTSNDAAAEALNASSKEEALQIIREKIPEKYLFQFHNLNSNLDRIFDKTPEPWLPPFHVSSFTNVPDEMRQWAENYFGKSSAARPERPISIIIEGDSRTGKTMWARSLGPHNYLSGHLDLNSRVYSNKVEYNVIDDVTPQYLKLKHWKELIGAQRDWQTNCKYGKPVQIKGGIPSIVLCNPGEGASYKVFLDKEENTPLKNWTFHNAKFVFLNSPLYQSSTQSS ?
Response: 27 relative to wild type (100)
